- Method Description: NCI Yeast Anticancer Drug Screen. Data for the sgs1 mgt1 strain (AID 161)
- Experimental Conditions: S. cerevisiae sgs1 mgt1 strain, at 50.0 µM (retest, dose inferred, filed as 5.0)
This is part of a sample that, as a whole, favours compounds with a hit. Of some 79,000 tested, about 15% had one in any assay. Activity calls are given as the source filed them. No stated cut-off is given here; in the data, active means growth inhibition above about 70%; inactive means the rest.
I would appreciate it if you answered using one of these outcomes: active, inactive

Look up the recorded call for CC(=O)OC1CCC2(C)C(CCC3C4=CCC(C5COC(=O)C5)C4(C)CCC32)C1 (stereo unspecified) in this test.
active

Look up the recorded call for CC1=NN(c2ccccc2)C(=O)C12[C@H](c1ccccc1)C2(C#N)C#N (stereo partly specified) in this test.
active

Look up the recorded call for O=C(N/N=C/c1cc(Br)ccc1O)c1ccccc1 in this test.
active

Look up the recorded call for COC1CCC2(C)C(=CCC3C4CC(OC(C)=O)CC4(C)CCC32)C1 (stereo unspecified) in this test.
inactive

Look up the recorded call for O=C(Nc1ccccc1Cl)c1cccnc1 in this test.
inactive

Look up the recorded call for O=C1CCC(Cc2ccc(Cl)cc2Cl)C(=O)N1 (stereo unspecified) in this test.
active

Look up the recorded call for Cc1cccc2c1Oc1cc(Cl)ccc1C2NC(=O)CCN1CCN(CCO)CC1 (stereo unspecified) in this test.
inactive

Look up the recorded call for O=[N+]([O-])c1ccccc1CC(c1c[nH]c2ccccc12)c1c[nH]c2ccccc12 in this test.
active

Look up the recorded call for CC1(c2ccccc2)OC(=O)C=CC1=O (stereo unspecified) in this test.
active

Look up the recorded call for CNC(=O)c1cccc2c(Nc3ccc(NS(C)(=O)=O)cc3OC)c3cccc(C)c3nc12 in this test.
inactive

Look up the recorded call for N#CC12CC3=C(N=C1NC1=C(CCc4ccccc41)C2)c1ccccc1CC3 (stereo unspecified) in this test.
inactive

====

- Method Description: NCI Yeast Anticancer Drug Screen. Data for the rad50 strain (AID 155)
- Experimental Conditions: S. cerevisiae rad50 strain growth inhibition; at 50.0 µM
- Description: Growth inhibition of yeast strains with defined genetic alterations is measured as a screen for potential anti-cancer activity. Selected strains with alterations in DNA damage repair or cell cycle control were exposed to compounds and growth inhibition was measured relative to vehicle treated controls. The strain used in this assay is rad50
Compounds without any hit were thinned out: in the full panel of roughly 79,000, 15% have a hit. The source made the active and inactive calls. Cut-off read from the data, not from the text of the source: active = growth inhibition above about 70%; inactive = the rest.
I would appreciate it if you answered using one of these outcomes: active, inactive

Look up the recorded call for CC1(C)CC(=O)C(CC2C(=O)c3ccccc3C2=O)C(=O)C1C(=O)C(=O)Nc1cccc2ccc(O)cc12 (stereo not given) in this test.
inactive

Look up the recorded call for O=C1C(Br)=C(C2CCCCC2)C(=O)c2ccccc21 in this test.
active

Look up the recorded call for OC(CN1CCCCC1)c1ccc2c(ccc3ccccc32)c1 (stereo not given) in this test.
active

Look up the recorded call for Cc1cc(N)c(C)c2c1[nH]c1ccc(Br)cc12 in this test.
inactive

Look up the recorded call for c1ccc2c(c1)ccc1ncccc12 in this test.
active

Look up the recorded call for CC(=O)N1C=C2CCC3c4ccccc4NC3C2CC1 (stereo not given) in this test.
inactive

Look up the recorded call for O=S(=O)(Nc1ccc2c3c(cccc13)C=C2)c1ccccc1 in this test.
inactive

Look up the recorded call for COc1cccc2c1[n+]([O-])c1cccc(O)c1[n+]2[O-] in this test.
active

Look up the recorded call for CC(O)CCCOC(c1ccccc1)(c1ccccc1)c1ccccc1 (stereo not given) in this test.
active

Look up the recorded call for O=C(Oc1cccc2cccnc12)c1cccnc1 in this test.
active

Look up the recorded call for O=C(O)c1cccc2c1Oc1c(cccc1C(=O)O)S2 in this test.
active

Look up the recorded call for CCOC(=O)N1c2ccc3ccccc3c2C=CC1C#N (stereo not given) in this test.
active

Look up the recorded call for CCOC(=O)C(CCOC)C(=O)OCC in this test.
active

Look up the recorded call for NC(=S)Nc1ccccc1O in this test.
inactive

Look up the recorded call for O=C1C(=O)c2ccc(Br)cc2C(O)=C1C(c1ccccc1)c1ccccc1 in this test.
inactive

Look up the recorded call for CC1CC(=O)OC(C(=O)c2ccccc2)N1c1ccc(C(F)(F)F)cc1N (stereo not given) in this test.
active

Look up the recorded call for CCN(CC)CCSCCCNc1cc(OC)cc2cccnc12 in this test.
inactive

Look up the recorded call for Cc1ccc(O)cc1CCCCO in this test.
inactive

Look up the recorded call for CC(C)(C)CC(C)(C)c1ccc(O)cc1O in this test.
active

Look up the recorded call for COc1ccc2c(c1)CCC/C2=N\NS(=O)(=O)c1c(C)cc(C)cc1C in this test.
inactive

Look up the recorded call for O=C(/C=C/c1ccc(Cl)c(Cl)c1)CCN1CCN(CCC(=O)/C=C/c2ccc(Cl)c(Cl)c2)CC1 in this test.
active

Look up the recorded call for Cc1c2ccncc2c(C)c2c1[nH]c1ccc(OCCN(C)C)cc12 in this test.
active

Look up the recorded call for O=C1CNC(=O)c2cc(N=Cc3cc(Br)ccc3O)ccc2N1 in this test.
active

Look up the recorded call for CCCCOC(=O)c1cnc[nH]c1=O in this test.
inactive

Look up the recorded call for CCCCCCCCCCCCNCc1ccc2c(c1)OCO2 in this test.
active
